- tested_target: Cytochrome P450 1A2 (Homo sapiens) (UniProt P05177)
- Sequence (P05177 whole entry, looked up): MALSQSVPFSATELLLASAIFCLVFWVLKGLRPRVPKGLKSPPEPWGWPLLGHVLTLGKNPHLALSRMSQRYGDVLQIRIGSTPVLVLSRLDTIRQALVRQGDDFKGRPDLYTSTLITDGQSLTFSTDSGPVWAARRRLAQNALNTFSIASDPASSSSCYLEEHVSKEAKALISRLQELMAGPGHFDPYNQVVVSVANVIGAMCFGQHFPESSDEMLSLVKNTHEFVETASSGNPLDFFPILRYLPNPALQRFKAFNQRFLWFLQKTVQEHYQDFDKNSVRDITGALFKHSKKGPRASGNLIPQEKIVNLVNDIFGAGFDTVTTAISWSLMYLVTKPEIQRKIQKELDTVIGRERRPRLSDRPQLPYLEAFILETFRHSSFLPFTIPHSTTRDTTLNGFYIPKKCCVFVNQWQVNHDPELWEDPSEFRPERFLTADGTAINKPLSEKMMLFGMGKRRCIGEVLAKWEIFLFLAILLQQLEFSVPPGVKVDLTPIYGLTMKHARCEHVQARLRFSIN
- assay_name: p450-cyp1a2 (AID 410)
- conditions: recombinant CYP1A2, luciferin-ME demethylation, luminescence; series mostly up to 57 µM
Records with an inconclusive call do not appear. The source made the active and inactive calls. The call rests on the fitted dose curve.
Allowed answers: y = active, n = inactive

Please review the following examples before continuing.
COCCNc1ncnc2ccc(-c3ccc(C(=O)N(C)C)cc3)cc12 n
c1ccc2c(-n3ccnc3)nc(-c3ccoc3)nc2c1 y
COc1ccccc1-c1ccc2ncnc(N3CCN(C)CC3)c2c1 y
N#Cc1cccc(-c2cc(NCc3ccccc3)ncn2)c1 y
Cn1c(=O)c(-c2ccc(Cl)cc2)nc2cnc(N3CCOCC3)nc21 y
CCNc1ncc2nc(C)c(=O)n(Cc3cccs3)c2n1 y

Lookup: I'd appreciate the recorded outcome for O=c1c(-c2cccs2)nc2cnc(N3CCNCC3)nc2n1-c1ccccc1 from this test.
Found: y

Lookup: I'd appreciate the recorded outcome for CC(C)NC(=O)N1CC[C@@]2(CCCN(C(=O)Oc3ccccc3)C2)C1 from this test.
Found: n

Lookup: I'd appreciate the recorded outcome for COCCn1c(=O)c(-c2cccc(C#N)c2)nc2cnc(N(C)C)nc21 from this test.
Found: y

Lookup: I'd appreciate the recorded outcome for COC(=O)N1CCC2(CCN(Cc3nccs3)CC2)CC1 from this test.
Found: n

Lookup: I'd appreciate the recorded outcome for O=C(c1csnn1)N1CCC2(CCCN(c3ccccc3)C2)CC1 from this test.
Found: n

These measurements were taken from PubChem BioAssay (NCATS).
